# credit: patent US20250353873A1

- Tested on: human APOE RNA
- METHOD DESCRIPTION: Dose-dependent inhibition of human APOE RNA in HepG2 cells, electroporation, 50,000 cells per well, RT-PCR normalized to GAPDH (Example 4, Tables 8-10)
- Format: cell-based
- CONDITION: 20,000 nM; HepG2, electroporation, 24-hour treatment
Strand notation (5' to 3'): a small letter for the sugar, then the base; units joined by * are phosphorothioate-linked, units joined directly phosphodiester-linked; [ ] holds rarer units or linkages, { } end groups; capitals alone tell only the bases. [ms] = mesyl phosphoramidate linkage; k = constrained ethyl (cEt); [5mC] = 5-methylcytosine; d = 2'-deoxy (DNA)
Measured APOE RNA (% UTC) by item
Reply numerically in % UTC, unit not repeated.

Reference set (4 entries):
For record 1746806 (k[5mC]*kT*dT[ms]dG[ms]kG*dT[ms]dG[ms]dA[ms]dA[ms]dT*d[5mC]*dT*dT*dT*dA[ms]dT*dT[ms]kA*kA*kA; antisense) [Compound 1746806] the listed APOE RNA (% UTC) is 37

The reported APOE RNA (% UTC) of the substance 1746807 (k[5mC]*kT*dT[ms]dG[ms]dG[ms]kT*dG[ms]dA[ms]dA[ms]dT*d[5mC]*dT*dT*dT*dA[ms]dT*dT[ms]kA*kA*kA; antisense) [Compound 1746807] was 30

Entry 1747053 (k[5mC]*dT[ms]dT[ms]kG*kG*kT*dG[ms]dA[ms]dA[ms]dT*d[5mC]*dT*dT*dT*dA[ms]dT*kT*dA[ms]dA[ms]kA; antisense) [Compound 1747053] — recorded APOE RNA (% UTC) = 32

The substance listed as 1746802 (k[5mC]*dT[ms]dT[ms]dG[ms]kG*kT*dG[ms]dA[ms]dA[ms]dT*d[5mC]*dT*dT*dT*dA[ms]dT*kT*dA[ms]kA*kA; antisense) [Compound 1746802] has a reported APOE RNA (% UTC) of 3

We next turn to a different substance, shown below.
Query 1746795 (k[5mC]*kT*dT[ms]kG*dG[ms]dT[ms]dG[ms]dA[ms]dA[ms]dT*d[5mC]*dT*dT*dT*dA[ms]dT*kT*dA[ms]kA*kA; antisense) [Compound 1746795] yields APOE RNA (% UTC) of 6
